pIC50 listing for selected compounds.
- measured-on: High affinity cAMP-specific and IBMX-insensitive 3',5'-cyclic phosphodiesterase 8A (Homo sapiens, UniProt O60658)
- Sequence (O60658 whole entry): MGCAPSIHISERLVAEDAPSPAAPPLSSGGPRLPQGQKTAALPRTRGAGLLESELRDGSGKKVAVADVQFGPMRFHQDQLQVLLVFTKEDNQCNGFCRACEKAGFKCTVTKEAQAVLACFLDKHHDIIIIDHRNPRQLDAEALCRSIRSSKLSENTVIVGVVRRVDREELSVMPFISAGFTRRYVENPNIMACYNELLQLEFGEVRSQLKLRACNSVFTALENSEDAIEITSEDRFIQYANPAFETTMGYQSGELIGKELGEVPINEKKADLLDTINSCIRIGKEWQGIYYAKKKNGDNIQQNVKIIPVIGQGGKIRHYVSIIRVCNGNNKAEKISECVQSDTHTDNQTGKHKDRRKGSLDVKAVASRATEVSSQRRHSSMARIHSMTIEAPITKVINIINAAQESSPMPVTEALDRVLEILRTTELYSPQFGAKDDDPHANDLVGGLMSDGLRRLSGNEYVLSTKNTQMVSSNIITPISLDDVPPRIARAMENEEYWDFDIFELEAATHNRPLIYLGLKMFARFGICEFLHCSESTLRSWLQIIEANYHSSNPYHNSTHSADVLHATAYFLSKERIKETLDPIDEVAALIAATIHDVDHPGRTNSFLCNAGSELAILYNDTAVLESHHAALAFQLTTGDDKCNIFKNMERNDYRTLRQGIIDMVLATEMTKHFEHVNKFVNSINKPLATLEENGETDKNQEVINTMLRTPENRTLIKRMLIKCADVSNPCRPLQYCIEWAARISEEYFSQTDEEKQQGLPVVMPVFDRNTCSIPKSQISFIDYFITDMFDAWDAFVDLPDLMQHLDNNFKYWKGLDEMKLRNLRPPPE
- test-method-notes: Inhibition of full-length recombinant human PDE8A using [3H]-cAMP as substrate incubated for 10 mins by SPA assay
pIC50: −log10 of the molar value.
value-type: pIC50

mol-smiles	result
COc1ccc(CNc2nc(N(CCO)CCO)nc3c2cnn3C(C)C)cc1	< 5.00
COc1ccc(CNc2nc(N(CCO)CCO)nc3c2[nH]c(=O)n3C(C)C)cc1	< 5.00
COc1ccc(CNc2nc(N(CCO)CCO)nc3c2ncn3C(C)C)cc1	< 5.00

###

- measured-on: Cone cGMP-specific 3',5'-cyclic phosphodiesterase subunit alpha' (Homo sapiens)
- Sequence (P51160 whole entry): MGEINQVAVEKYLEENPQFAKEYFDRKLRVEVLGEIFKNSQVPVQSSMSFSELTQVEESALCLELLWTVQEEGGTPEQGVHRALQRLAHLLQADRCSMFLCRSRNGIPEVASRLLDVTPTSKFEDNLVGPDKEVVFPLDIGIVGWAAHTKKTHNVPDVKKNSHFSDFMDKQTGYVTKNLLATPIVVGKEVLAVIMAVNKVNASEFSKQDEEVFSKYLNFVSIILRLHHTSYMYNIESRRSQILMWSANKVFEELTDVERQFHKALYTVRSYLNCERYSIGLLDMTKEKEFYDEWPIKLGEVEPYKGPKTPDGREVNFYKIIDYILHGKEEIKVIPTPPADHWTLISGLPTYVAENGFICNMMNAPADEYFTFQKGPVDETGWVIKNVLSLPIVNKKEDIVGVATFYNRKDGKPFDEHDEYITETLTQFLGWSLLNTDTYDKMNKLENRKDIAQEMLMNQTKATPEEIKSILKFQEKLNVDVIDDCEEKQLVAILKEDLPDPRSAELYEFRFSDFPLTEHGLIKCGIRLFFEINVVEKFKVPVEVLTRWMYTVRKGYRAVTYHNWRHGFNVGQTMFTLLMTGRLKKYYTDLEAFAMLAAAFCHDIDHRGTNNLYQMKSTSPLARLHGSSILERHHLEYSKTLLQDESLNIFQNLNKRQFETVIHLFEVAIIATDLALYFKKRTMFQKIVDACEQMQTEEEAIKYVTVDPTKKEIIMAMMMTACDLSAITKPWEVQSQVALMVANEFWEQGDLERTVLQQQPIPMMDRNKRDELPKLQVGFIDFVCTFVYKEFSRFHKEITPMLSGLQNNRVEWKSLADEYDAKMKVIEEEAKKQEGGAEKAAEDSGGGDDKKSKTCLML
- test-method-notes: Inhibition of full-length recombinant human PDE6C using [3H]-cGMP as substrate incubated for 10 mins by SPA assay
pIC50: −log10 of the molar value.
value-type: pIC50

mol-smiles	readout-number
COc1ccc(CNc2nc(N(CCO)CCO)nc3c2cnn3C(C)C)cc1	6.80
COc1ccc(CNc2nc(N(CCO)CCO)nc3c2[nH]c(=O)n3C(C)C)cc1	7.05

###

IC50 listing for selected compounds.
- measured-on: cAMP and cAMP-inhibited cGMP 3',5'-cyclic phosphodiesterase 10A (Homo sapiens)
- Sequence (Q9Y233 whole entry, the tested form may be a part): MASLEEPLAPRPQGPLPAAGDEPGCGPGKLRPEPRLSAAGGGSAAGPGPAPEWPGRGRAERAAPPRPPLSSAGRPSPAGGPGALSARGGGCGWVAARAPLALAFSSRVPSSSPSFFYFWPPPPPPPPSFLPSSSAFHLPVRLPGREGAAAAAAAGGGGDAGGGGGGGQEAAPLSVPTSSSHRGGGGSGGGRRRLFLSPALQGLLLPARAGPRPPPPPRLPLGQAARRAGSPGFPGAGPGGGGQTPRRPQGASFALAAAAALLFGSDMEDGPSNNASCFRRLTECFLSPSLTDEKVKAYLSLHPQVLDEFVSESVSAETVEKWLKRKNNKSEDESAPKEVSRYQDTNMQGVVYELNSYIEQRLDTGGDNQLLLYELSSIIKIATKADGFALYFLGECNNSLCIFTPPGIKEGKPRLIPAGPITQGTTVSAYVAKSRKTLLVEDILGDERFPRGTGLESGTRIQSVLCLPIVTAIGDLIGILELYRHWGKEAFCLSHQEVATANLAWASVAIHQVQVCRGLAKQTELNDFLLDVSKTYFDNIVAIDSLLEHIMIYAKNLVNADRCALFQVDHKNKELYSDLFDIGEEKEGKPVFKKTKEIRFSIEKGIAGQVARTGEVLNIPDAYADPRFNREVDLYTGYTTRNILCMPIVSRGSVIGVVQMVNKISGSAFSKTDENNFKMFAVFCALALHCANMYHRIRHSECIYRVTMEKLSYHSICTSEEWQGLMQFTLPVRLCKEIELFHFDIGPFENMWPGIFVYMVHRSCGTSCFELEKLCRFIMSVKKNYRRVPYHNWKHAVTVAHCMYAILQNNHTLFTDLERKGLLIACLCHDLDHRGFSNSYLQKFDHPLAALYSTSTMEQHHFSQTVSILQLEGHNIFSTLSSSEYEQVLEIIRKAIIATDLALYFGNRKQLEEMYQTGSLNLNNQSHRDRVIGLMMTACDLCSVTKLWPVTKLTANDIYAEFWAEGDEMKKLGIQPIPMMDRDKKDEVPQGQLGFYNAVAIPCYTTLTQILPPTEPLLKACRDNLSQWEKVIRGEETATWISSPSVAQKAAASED
- test-method-notes: Inhibition of his-tagged recombinant human PDE10A catalytic domain (S439 to A766 residues) expressed in Escherichia coli BL21(DE3) using [3H]-cAMP as substrate incubated for 10 mins by SPA assay
value-type: IC50

mol-smiles	result
COc1ccc(CNc2nc(N(CCO)CCO)nc3c2[nH]c(=O)n3C(C)C)cc1	> 10000 nM
COc1ccc(CNc2nc(N(CCO)CCO)nc3c2cnn3C(C)C)cc1	> 1000 nM
COc1ccc(CNc2nc(N(CCO)CCO)nc3c2ncn3C(C)C)cc1	1290 nM

###

- measured-on: cGMP-dependent 3',5'-cyclic phosphodiesterase (Homo sapiens, UniProt O00408)
- Sequence (O00408 whole entry): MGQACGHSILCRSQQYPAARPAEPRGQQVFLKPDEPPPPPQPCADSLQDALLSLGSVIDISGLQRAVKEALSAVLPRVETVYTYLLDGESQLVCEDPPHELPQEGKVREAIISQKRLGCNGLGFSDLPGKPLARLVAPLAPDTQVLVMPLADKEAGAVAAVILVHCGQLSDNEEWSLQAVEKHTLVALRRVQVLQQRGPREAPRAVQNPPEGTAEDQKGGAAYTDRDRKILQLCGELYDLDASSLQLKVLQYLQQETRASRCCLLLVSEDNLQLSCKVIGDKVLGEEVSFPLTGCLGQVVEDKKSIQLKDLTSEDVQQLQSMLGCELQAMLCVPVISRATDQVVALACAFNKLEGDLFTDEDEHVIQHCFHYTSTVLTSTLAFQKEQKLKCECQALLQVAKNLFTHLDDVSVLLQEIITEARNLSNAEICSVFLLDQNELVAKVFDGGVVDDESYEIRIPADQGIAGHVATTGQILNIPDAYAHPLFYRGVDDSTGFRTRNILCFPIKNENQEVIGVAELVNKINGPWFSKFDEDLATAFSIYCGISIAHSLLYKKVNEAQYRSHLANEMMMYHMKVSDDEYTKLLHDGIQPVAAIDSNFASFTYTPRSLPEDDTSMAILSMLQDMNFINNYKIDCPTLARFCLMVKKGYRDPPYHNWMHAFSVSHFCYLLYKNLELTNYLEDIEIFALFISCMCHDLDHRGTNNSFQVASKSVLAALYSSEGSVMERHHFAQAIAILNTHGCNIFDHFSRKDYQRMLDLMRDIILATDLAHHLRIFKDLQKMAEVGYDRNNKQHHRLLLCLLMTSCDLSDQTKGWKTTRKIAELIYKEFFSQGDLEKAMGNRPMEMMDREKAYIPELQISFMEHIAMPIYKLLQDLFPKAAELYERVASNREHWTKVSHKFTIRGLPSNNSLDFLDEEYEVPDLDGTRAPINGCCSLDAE
- test-method-notes: Inhibition of full-length recombinant human PDE2A using [3H]-cGMP as substrate incubated for 10 mins by SPA assay
pIC50: −log10 of the molar value.

mol-smiles	measured-on	pIC50
COc1ccc(CNc2nc(N(CCO)CCO)nc3c2[nH]c(=O)n3C(C)C)cc1	cGMP-dependent 3',5'-cyclic phosphodiesterase (Homo sapiens, UniProt O00408)	< 6.00
COc1ccc(CNc2nc(N(CCO)CCO)nc3c2ncn3C(C)C)cc1	cGMP-dependent 3',5'-cyclic phosphodiesterase (Homo sapiens, UniProt O00408)	< 6.00

###

- measured-on: 3',5'-cyclic-AMP phosphodiesterase 4D (Homo sapiens, UniProt Q08499)
- Sequence (Q08499 whole entry, the tested form may be a part): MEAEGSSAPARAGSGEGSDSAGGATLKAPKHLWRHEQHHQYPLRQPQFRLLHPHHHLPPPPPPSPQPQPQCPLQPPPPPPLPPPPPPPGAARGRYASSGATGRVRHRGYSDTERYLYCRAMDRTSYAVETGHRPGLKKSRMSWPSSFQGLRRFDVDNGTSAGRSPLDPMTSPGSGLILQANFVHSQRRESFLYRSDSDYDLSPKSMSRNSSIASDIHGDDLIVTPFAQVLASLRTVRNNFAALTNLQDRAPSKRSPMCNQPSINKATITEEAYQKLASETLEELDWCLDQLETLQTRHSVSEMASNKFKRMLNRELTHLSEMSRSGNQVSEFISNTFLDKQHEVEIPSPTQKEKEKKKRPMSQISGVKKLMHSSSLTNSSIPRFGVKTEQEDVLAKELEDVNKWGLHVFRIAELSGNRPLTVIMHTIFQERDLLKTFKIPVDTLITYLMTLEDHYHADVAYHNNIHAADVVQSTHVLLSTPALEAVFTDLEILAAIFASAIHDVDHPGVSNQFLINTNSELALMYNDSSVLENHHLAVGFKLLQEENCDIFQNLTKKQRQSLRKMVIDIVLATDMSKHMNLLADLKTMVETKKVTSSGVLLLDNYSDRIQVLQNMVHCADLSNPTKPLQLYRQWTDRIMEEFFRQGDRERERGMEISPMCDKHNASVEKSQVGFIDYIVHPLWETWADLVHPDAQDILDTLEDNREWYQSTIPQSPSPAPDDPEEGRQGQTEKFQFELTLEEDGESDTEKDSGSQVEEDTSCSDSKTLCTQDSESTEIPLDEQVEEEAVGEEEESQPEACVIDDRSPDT
- test-method-notes: Inhibition of his-tagged recombinant human PDE4D catalytic domain (T86 to S413 residues) expressed in Escherichia coli BL21(DE3) using [3H]-cAMP as substrate incubated for 10 mins by SPA assay
Where a name gives a salt, the structure may show the parent alone.

molecule	measured-on	IC50 [µM]
CCOc1ccc(Cc2nccc3cc(OCC)c(OCC)cc23)cc1OCC [ETHAVERINE HYDROCHLORIDE]	3',5'-cyclic-AMP phosphodiesterase 4D (Homo sapiens, UniProt Q08499)	0.41
COc1ncc(-c2ccc3nccc(-c4ccnnc4)c3c2)cc1NS(=O)(=O)c1ccc(F)cc1F [OMIPALISIB]	3',5'-cyclic-AMP phosphodiesterase 4D (Homo sapiens, UniProt Q08499)	1.77
CCOc1ccn(-c2ccc(F)cc2)c(=O)c1C(=O)Nc1ccc(Oc2ccnc(N)c2Cl)c(F)c1 [BMS-777607]	3',5'-cyclic-AMP phosphodiesterase 4D (Homo sapiens, UniProt Q08499)	2.46
O=C(O)c1ccc2c(c1)nc(Nc1cccc(Cl)c1)c1ccncc12 [SILMITASERTIB]	3',5'-cyclic-AMP phosphodiesterase 4D (Homo sapiens, UniProt Q08499)	1
COc1ccc(CNc2nc(N(CCO)CCO)nc3c2cnn3C(C)C)cc1	3',5'-cyclic-AMP phosphodiesterase 4D (Homo sapiens, UniProt Q08499)	2.25
COc1ccc2c(c1)CC[C@H]1[C@H]3CC[C@H](NCCCCCCN4C(=O)C=CC4=O)[C@@]3(C)CC[C@@H]21	3',5'-cyclic-AMP phosphodiesterase 4D (Homo sapiens, UniProt Q08499)	0.94
Cn1cc(-c2ccncc2)c(-c2ccc(OCc3ccc4ccccc4n3)cc2)n1 [MARDEPODECT]	3',5'-cyclic-AMP phosphodiesterase 4D (Homo sapiens, UniProt Q08499)	1.74
COc1ccc(CNc2nc(N(CCO)CCO)nc3c2[nH]c(=O)n3C(C)C)cc1	3',5'-cyclic-AMP phosphodiesterase 4D (Homo sapiens, UniProt Q08499)	1.78
COc1ccc(CNc2nc(N(CCO)CCO)nc3c2ncn3C(C)C)cc1	3',5'-cyclic-AMP phosphodiesterase 4D (Homo sapiens, UniProt Q08499)	0.42
